# Tested on: 885724-159-R-J1-PDC complex spheroid viability
# Experiment: Anticancer human tumor 885724-159-R-J1-PDC patient-derived pancreatic adenocarcinoma cell line growth inhibition [GQUAD]
# Assay Conditions: second compound 1 µM; first compound 0.316 µM; stronger effect = lower value
Listing: viability, T/C of selected molecules
Just the number in %, nothing appended.

Example entries begin here.
| Molecule | Obs Value |
| --- | --- |
| Cc1[nH]c2ccccc2c1CCNCc1ccc(/C=C/C(=O)NO)cc1 + Cc1[nH]c2ccc(F)cc2c1-c1nc2c3cccnc3c3ncccc3c2[nH]1 | 40.3 |
| CC1COCCN1c1cc(C2(O)CC3CCC(C2)O3)c2cnn(-c3ccn[nH]3)c2n1 (stereo unspecified) + CN(C)c1ccc(Nc2c3ccc(NC(=O)CCN4CCCC4)cc3nc3cc(NC(=O)CCN4CCCC4)ccc23)cc1 | 65.1 |
| O=C(NO)c1cnc(N2CCN(S(=O)(=O)c3ccc4ccccc4c3)CC2)nc1 + Cc1[nH]c2ccc(F)cc2c1-c1nc2c3cccnc3c3ncccc3c2[nH]1 | 94.9 |
| CC1COCCN1c1cc(C2(S(C)(=N)=O)CC2)nc(-c2ccnc3[nH]ccc23)n1 (stereo unspecified) + Cc1cnc(CNC(=O)c2c(=O)c3ccc(N4CCCN(C)CC4)nc3n3c2sc2ccccc23)cn1 | 81.6 |
| C=CC(=O)N1CCN(c2nc(=O)n(-c3c(C)ccnc3C(C)C)c3nc(-c4c(O)cccc4F)c(F)cc23)C(C)C1 (stereo unspecified) + CN(C)c1ccc(Nc2c3ccc(NC(=O)CCN4CCCC4)cc3nc3cc(NC(=O)CCN4CCCC4)ccc23)cc1 | 70.6 |

What viability, T/C value was documented for this molecule, CC1COCCN1c1cc(C2(O)CC3CCC(C2)O3)c2cnn(-c3ccn[nH]3)c2n1 (stereo unspecified) + Cc1cnc(CNC(=O)c2c(=O)c3ccc(N4CCCN(C)CC4)nc3n3c2sc2ccccc23)cn1 ?
48.7

* * *

Reported pIC50 values follow for various compounds
# Test system: 885724-159-R-J1-PDC complex spheroid viability
# Experiment: Anticancer human tumor 885724-159-R-J1-PDC cell line growth inhibition [GQUAD];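 further: spheroids exposed to agents for seven days before readout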
# Assay Conditions: curve of first compound; second compound 1 µM
Please report pIC50 as the negative decimal logarithm of the molar concentration, giving only the number.

What value of measured pIC50 is listed for COc1ccc([C@@H](O)c2cc(-c3ncnc4cc(N5CCOCC5)ccc34)c(F)cc2Cl)nn1 + CN(C)c1ccc(Nc2c3ccc(NC(=O)CCN4CCCC4)cc3nc3cc(NC(=O)CCN4CCCC4)ccc23)cc1 ?
5.52

Also check CC1COCCN1c1cc(C2(O)CC3CCC(C2)O3)c2cnn(-c3ccn[nH]3)c2n1 (stereo unspecified) + Cc1cnc(CNC(=O)c2c(=O)c3ccc(N4CCCN(C)CC4)nc3n3c2sc2ccccc23)cn1
6.53

Now the compound O=C(NO)c1cnc(N2CCN(S(=O)(=O)c3ccc4ccccc4c3)CC2)nc1 + Cc1cnc(CNC(=O)c2c(=O)c3ccc(N4CCCN(C)CC4)nc3n3c2sc2ccccc23)cn1
6.36

Do the same for CCc1c2c(nc3ccc(O)cc13)-c1cc3c(c(=O)n1C2)COC(=O)[C@]3(O)CC + CN(C)c1ccc(Nc2c3ccc(NC(=O)CCN4CCCC4)cc3nc3cc(NC(=O)CCN4CCCC4)ccc23)cc1 please
7.62

Let us now turn to COc1cccc2c1C(=O)c1c(O)c3c(c(O)c1C2=O)CC(O)(C(=O)CO)CC3OC1CC(N)C(O)C(C)O1 (stereo unspecified) + Cc1[nH]c2ccc(F)cc2c1-c1nc2c3cccnc3c3ncccc3c2[nH]1
5.60
